tested on: P388 leukemia ip, CD2F1 mice, survival T/C; assay: NCI In Vivo Anticancer Drug Screen. Data for tumor model P388 Leukemia (intraperitoneal) in CD2F1 (CDF1) mice; conditions: endpoint: median survival time; dose: 400.0 mg/kg/injection; schedule: Q04DX003 (ip); vehicle: saline with Tween-80; higher = longer survival
Inconclusive results and toxic doses are left out.
Recorded metric: T/C

Field: example entries. Status: answers known.
>>> print(df.to_string())
                                   compound        meas_value
0  Cc1c(C)c2c(c(C)c1O)CCC(C)(CCCC(C)CCCC(C)CCCC(C)C)O2 (stereo not drawn)   87 % of control
1  C[C@]12CC[C@H](O)C[C@@H]1CC[C@@H]1[C@@H]2C(=O)C[C@@]2(C)[C@H]1CC[C@]2(O)C(=O)CBr  100 % of control

Continue with the next compound.
Enquiry: Under P388 leukemia ip, CD2F1 mice, survival T/C: T/C value of CC1=NS(C)(=O)=c2ccccc2=N1 (stereo not drawn) ?
Return: 106 % of control

* * *

T/C reference
system: P388 leukemia ip, CD2F1 mice, survival T/C; assay: NCI In Vivo Anticancer Drug Screen. Data for tumor model P388 Leukemia (intraperitoneal) in CD2F1 (CDF1) mice; settings: endpoint: median survival time; dose: 50.0 mg/kg/injection; schedule: Q01DX009 (ip); vehicle: saline with Tween-80; higher = longer survival
Inconclusive results and toxic doses are left out.

                                   compound        meas_value
0  O=C(N=Nc1c(Cl)c(O)c2ccccc2c1O)C(=O)Nc1ccc(Cl)c([N+](=O)[O-])c1  113 % of control
1  CC1C(c2ccccc2)OC2N1CN(C(C)(C)C)CC2(C)C (centres undefined)  100 % of control
2                   CCCn1cnc2c(=S)nc[nH]c21   90 % of control

Continue with the next compound.
Enquiry: What measured T/C goes with "O=c1[nH][nH]c(=S)n1-c1ccccc1" ?
Return: 98 % of control

* * *

T/C reference
test system: P388 leukemia ip, CD2F1 mice, survival T/C; assay: NCI In Vivo Anticancer Drug Screen. Data for tumor model P388 Leukemia (intraperitoneal) in CD2F1 (CDF1) mice; conditions: endpoint: median survival time; dose: 200.0 mg/kg/injection; schedule: Q01DX005 (ip); vehicle: Klucel (hydroxypropylcellulose) (HPC); higher = longer survival
Inconclusive results and toxic doses are left out.

Field: example entries. Status: answers known.
In [3]: df
Out[3]:
                                 molecule                              assay_system        meas_value
0            CN(O)/C=C1\C(=O)C=Cc2ccccc21  P388 leukemia ip, CD2F1 mice, survival T/C   90 % of control
1         Cc1ccc(S(=O)(=O)N2CCC(N)=N2)cc1  P388 leukemia ip, CD2F1 mice, survival T/C   90 % of control
2  COc1cccc(/C=C\C(=O)c2ccccc(=O)c2O)c1OC  P388 leukemia ip, CD2F1 mice, survival T/C  107 % of control

Enquiry: What measured T/C goes with CCCCC(CC)CS(=O)(=O)OCCCCOS(=O)(=O)CC(CC)CCCC (configuration not stated) ?
Return: 108 % of control

Enquiry: What measured T/C goes with "O=C(Nc1n[nH]c(NC(=O)C(F)(F)F)n1)C(F)(F)F" ?
Return: 100 % of control

Enquiry: What measured T/C goes with COc1cccc2c1C(CCCC(=O)O)CCC2 (configuration not stated) ?
Return: 104 % of control

Enquiry: What measured T/C goes with CCCCC(CC)COCC(O)Cn1cnc2c(N)ncnc21 (configuration not stated) ?
Return: 91 % of control

* * *

T/C reference
System: P388 leukemia ip, CD2F1 mice, survival T/C
Experiment: NCI In Vivo Anticancer Drug Screen. Data for tumor model P388 Leukemia (intraperitoneal) in CD2F1 (CDF1) mice
Conditions: endpoint: median survival time; dose: 25.0 mg/kg/injection; schedule: Q01DX009 (ip); vehicle: Klucel (hydroxypropylcellulose) (HPC); higher = longer survival
Method: The antitumor activity of compounds was measured in mice bearing transplantable tumors. Survival or tumor size were measured and the results are expressed as the measurement made in the treated group (T) divided by the measurement made in the vehicle treated control group (C). The tumor model used in this assay is P388 Leukemia (intraperitoneal) in CD2F1 (CDF1) mice
Inconclusive results and toxic doses are left out.

Field: example entries. Status: answers known.
Compound	Recorded metric	Meas value
C=C1C(=O)OC2/C=C(\C)CC/C=C(\C)C(OC(=O)C3(C)OC3C)C(O)C12 (centres undefined)	T/C	100 % of control
CC1=CC2(C)C3C(=O)NC(=O)C3C1C1(C)C3C(=O)NC(=O)C3C21 (centres undefined)	T/C	103 % of control
Cc1c2c(cc3c1[nH]c1ccccc13)C(c1ccc(Cl)cc1)=NCC2	T/C	101 % of control
C=C1CCC(OC(C)=O)C2(C)C(OC(C)=O)CC3OC3(C)C2C(OC(C)=O)C2C(C)C(=O)OC2C1Cl (centres undefined)	T/C	99 % of control
c1ccc(-c2nc3cnccc3o2)cc1	T/C	114 % of control

Enquiry: What measured T/C goes with Nc1nc(Sc2ccc([N+](=O)[O-])c3nonc23)c2ncn(C3OC(CO)C(O)C3O)c2n1 (centres undefined) ?
Return: 122 % of control

Enquiry: What measured T/C goes with "C1CCC([Se][Se]C2CCCC2)C1" ?
Return: 110 % of control

Enquiry: What measured T/C goes with CC(=O)OC(C(=O)CBr)C(OC(C)=O)C(OC(C)=O)C(=O)CBr (centres undefined) ?
Return: 96 % of control

Enquiry: What measured T/C goes with COC1/C=C/OC2(C)Oc3c(C)c(O)c4c(O)c(c5c(nc(-c6ccco6)n5-c5ccccc5)c4c3C2=O)NC(=O)/C(C)=C\C=C\C(C)C(O)C(C)C(O)C(C)C(OC(C)=O)C1C (centres undefined) ?
Return: 89 % of control

* * *

test system: P388 leukemia ip, CD2F1 mice, survival T/C; test: NCI In Vivo Anticancer Drug Screen. Data for tumor model P388 Leukemia (intraperitoneal) in CD2F1 (CDF1) mice; conditions: endpoint: median survival time; dose: 200.0 mg/kg/injection; schedule: Q01DX005 (ip); vehicle: Klucel (hydroxypropylcellulose) (HPC); higher = longer survival
Toxic doses and inconclusive results are not listed.
T/C reference

Field: example entries. Status: answers known.
>>> df
                                   compound                              assay_system        meas_value
0  CCCC(=O)NN(Cn1c(=S)sc2ccccc21)Cn1c(=S)sc2ccccc21  P388 leukemia ip, CD2F1 mice, survival T/C   93 % of control
1              O=C(O)CNC(=O)Cc1cccc2ccccc12  P388 leukemia ip, CD2F1 mice, survival T/C   95 % of control
2  COc1ccc2c3c([nH]c2c1)[C@H]1C[C@H]2[C@H](C[C@@H](O)[C@H](OC)[C@H]2C(=O)O)CN1CC3  P388 leukemia ip, CD2F1 mice, survival T/C  101 % of control
3                                   C=C(F)F  P388 leukemia ip, CD2F1 mice, survival T/C  103 % of control
4     COc1ccc(S(=O)(=O)N/N=C/c2ccccn2)cc1OC  P388 leukemia ip, CD2F1 mice, survival T/C   98 % of control
5    COc1ccc2c(c1)c(COC(C)=O)c(C)c[n+]2[O-]  P388 leukemia ip, CD2F1 mice, survival T/C   88 % of control
6           Cn1c(=O)oc2cc(NC(N)=O)c(Cl)cc21  P388 leukemia ip, CD2F1 mice, survival T/C   86 % of control
7  CC(=O)Nc1cccc2nc(-c3ccccn3)n(CCc3ccccn3)c12  P388 leukemia ip, CD2F1 mice, survival T/C  109 % of control

Enquiry: What measured T/C goes with "CC(=O)n1oc2c(Br)cc(Br)cc2c1=O" ?
Return: 107 % of control

Enquiry: What measured T/C goes with "Nc1ccc2cc(Cl)[nH]c(=O)c2c1" ?
Return: 97 % of control

Enquiry: What measured T/C goes with Cc1ccc(S(=O)c2ccccc2C(O)(C(F)(F)F)C(F)(F)F)cc1 (stereo not given) ?
Return: 92 % of control

* * *

T/C reference
test system: P388 leukemia ip, CD2F1 mice, survival T/C; assay: NCI In Vivo Anticancer Drug Screen. Data for tumor model P388 Leukemia (intraperitoneal) in CD2F1 (CDF1) mice; details: endpoint: median survival time; dose: 50.0 mg/kg/injection; schedule: Q01DX009 (ip); vehicle: saline; higher = longer survival
Toxic doses and inconclusive results are not listed.

Field: example entries. Status: answers known.
In [3]: df
Out[3]:
                        compound                              assay_system        meas_value
0             C[N+](C)(C)CCCCCCN  P388 leukemia ip, CD2F1 mice, survival T/C  102 % of control
1  CCCCCCCC/C=C\CCCCCCCCN1CCOCC1  P388 leukemia ip, CD2F1 mice, survival T/C   97 % of control

Enquiry: Under P388 leukemia ip, CD2F1 mice, survival T/C: T/C value of O=C(O)C(O)C(O)C(O)C(=O)O (stereo unspecified) ?
Return: 101 % of control

Enquiry: Under P388 leukemia ip, CD2F1 mice, survival T/C: T/C value of "Cc1ccc(S(=O)(=O)C(Sc2ccccc2)=S=NC23CC4CC(CC(C4)C2)C3)cc1" ?
Return: 100 % of control

Enquiry: Under P388 leukemia ip, CD2F1 mice, survival T/C: T/C value of "O=C(O)C1Oc2cc3ccccc3cc2O1" ?
Return: 90 % of control

Enquiry: Under P388 leukemia ip, CD2F1 mice, survival T/C: T/C value of "Cc1cc2nnnn2c2ccccc12" ?
Return: 96 % of control

Enquiry: Under P388 leukemia ip, CD2F1 mice, survival T/C: T/C value of O=C(O)CSC(CC(=O)O)C(=O)O (stereo unspecified) ?
Return: 96 % of control

Enquiry: Under P388 leukemia ip, CD2F1 mice, survival T/C: T/C value of "CC(C)OP(=S)(S)OC(C)C" ?
Return: 114 % of control

Enquiry: Under P388 leukemia ip, CD2F1 mice, survival T/C: T/C value of "COc1ccc(OC)c(N=Cc2ccc(C=Nc3cc(OC)ccc3OC)cc2)c1" ?
Return: 101 % of control

Enquiry: Under P388 leukemia ip, CD2F1 mice, survival T/C: T/C value of "CN(c1ccccc1)c1cc2nc3ccccc3nc2cc1O" ?
Return: 98 % of control

Enquiry: Under P388 leukemia ip, CD2F1 mice, survival T/C: T/C value of "COCN(CCc1ccccc1)CCN(C)C" ?
Return: 113 % of control

Enquiry: Under P388 leukemia ip, CD2F1 mice, survival T/C: T/C value of "CCCCCCCCCC[N+]1([O-])CCCCC1" ?
Return: 97 % of control
